viability, T/C for assorted compounds
Tested on: 282377-053-R-J1-PDC complex spheroid viability;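 note: spheroids exposed to compounds for seven days; 100% = DMSO vehicle control viability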
TEST_NAME: Anticancer human tumor 282377-053-R-J1-PDC patient-derived colon adenocarcinoma cell line growth inhibition [POLQ]
REPORTED_CONDITIONS: second compound 1 µM; first compound 1 µM; hits give low values
VALUE_KIND: viability, T/C (%)

{"COMPOUND": "COc1cccc(OCCCN)c1-c1cc(Nc2cnc(C#N)cn2)n[nH]1 + Nc1ccc(C#CCN(C(=O)Cc2ncc(C(F)(F)F)cc2C(F)(F)F)c2ccc(F)cc2)nn1", "SYSTEM": "282377-053-R-J1-PDC complex spheroid viability", "VALUE_KIND": "viability, T/C", "OBSERVED_MEASUREMENT": 47.5}
{"COMPOUND": "O=C(c1cc(Cc2n[nH]c(=O)c3ccccc23)ccc1F)N1CCN(C(=O)C2CC2)CC1 + Cc1cccc(N(C)C(=O)C2C(O)CCN2c2nc(C)cc(C(F)(F)F)c2C#N)c1", "SYSTEM": "282377-053-R-J1-PDC complex spheroid viability", "VALUE_KIND": "viability, T/C", "OBSERVED_MEASUREMENT": 111}
{"COMPOUND": "CC(C)n1c(=O)n(C)c2cnc3cc(F)c(-c4ccc(OCCCN5CCCCC5)nc4)cc3c21 + COC1C(OC(N)=O)C(O)C(Oc2ccc3c(O)c(NC(=O)c4ccc(O)c(CC=C(C)C)c4)c(=O)oc3c2C)OC1(C)C", "SYSTEM": "282377-053-R-J1-PDC complex spheroid viability", "VALUE_KIND": "viability, T/C", "OBSERVED_MEASUREMENT": 106}
{"COMPOUND": "CCc1cc2c(N3CCc4c(cc(Cn5ccnc5)cc4-c4cn(C)nc4C(F)(F)F)C3=O)cc(C)nc2c(OC)n1 + Cc1cccc(N(C)C(=O)C2C(O)CCN2c2nc(C)cc(C(F)(F)F)c2C#N)c1", "SYSTEM": "282377-053-R-J1-PDC complex spheroid viability", "VALUE_KIND": "viability, T/C", "OBSERVED_MEASUREMENT": 89.9}
{"COMPOUND": "CCc1c2c(nc3ccc(O)cc13)-c1cc3c(c(=O)n1C2)COC(=O)[C@]3(O)CC + COC1C(OC(N)=O)C(O)C(Oc2ccc3c(O)c(NC(=O)c4ccc(O)c(CC=C(C)C)c4)c(=O)oc3c2C)OC1(C)C", "SYSTEM": "282377-053-R-J1-PDC complex spheroid viability", "VALUE_KIND": "viability, T/C", "OBSERVED_MEASUREMENT": 21.6}
{"COMPOUND": "O=C(Nc1ccc(O)c(NS(=O)(=O)c2ccc(F)cc2)c1)c1ccc(-c2ccccc2)cc1 + COC1C(OC(N)=O)C(O)C(Oc2ccc3c(O)c(NC(=O)c4ccc(O)c(CC=C(C)C)c4)c(=O)oc3c2C)OC1(C)C", "SYSTEM": "282377-053-R-J1-PDC complex spheroid viability", "VALUE_KIND": "viability, T/C", "OBSERVED_MEASUREMENT": 115}
{"COMPOUND": "CCc1c2c(nc3ccc(O)cc13)-c1cc3c(c(=O)n1C2)COC(=O)[C@]3(O)CC + Cc1cccc(N(C)C(=O)C2C(O)CCN2c2nc(C)cc(C(F)(F)F)c2C#N)c1", "SYSTEM": "282377-053-R-J1-PDC complex spheroid viability", "VALUE_KIND": "viability, T/C", "OBSERVED_MEASUREMENT": 17.2}
